The measured values listed here are drawn from the NIST ThermoML archive (doi:10.1021/je101191e).

procedure-details: xn = mol fraction of the nth substance listed
condition-context: 298.15 K; 101.3 kPa; Liquid; Concentric cylinders viscometry; x1 = 0.8
Numbers after ± are expanded uncertainties.
assay-readout: viscosity
Please make sure the unit comes right after the number.

{"columns": ["compound", "observed-result"],
 "data": [
  ["CCCCCCCC(=O)[O-].CC[NH+](C(C)C)C(C)C [N-ethyl-N-isopropylpropan-2-aminium octanoate] + O", "18.05 ± 1.1 mPa·s"],
  ["CCCCCCC(=O)[O-].CC[NH+](C(C)C)C(C)C [N-ethyl-N-isopropylpropan-2-aminium heptanoate] + CC#N", "11.6 ± 0.71 mPa·s"],
  ["CCCCCCC(=O)[O-].CC[NH+](C(C)C)C(C)C [N-ethyl-N-isopropylpropan-2-aminium heptanoate] + O", "18.07 ± 1.1 mPa·s"]
]}

Let us examine a further case.
Prompt line: I have this compound here, CCCCCCCC(=O)[O-].CC[NH+](C(C)C)C(C)C [N-ethyl-N-isopropylpropan-2-aminium octanoate] + CC#N , and I need its recorded viscosity.
Response line: 13.31 ± 0.82 mPa·s

====

Overview of reported viscosity across a group of compounds:
procedure-details: xn = mol fraction of the nth substance listed
condition-context: 298.15 K; 101.3 kPa; Liquid; Concentric cylinders viscometry; x1 = 0.1
Entry rule: numbers only, all in mPa·s.

Worked cases, answers included:
{"columns": ["compound", "viscosity [mPa·s]"],
 "data": [
  ["CCCCCCCC(=O)[O-].CC[NH+](C(C)C)C(C)C [N-ethyl-N-isopropylpropan-2-aminium octanoate] + O", 36.61],
  ["CCCCCCC(=O)[O-].CC[NH+](C(C)C)C(C)C [N-ethyl-N-isopropylpropan-2-aminium heptanoate] + O", 21.99],
  ["CCCCCCCC(=O)[O-].CC[NH+](C(C)C)C(C)C [N-ethyl-N-isopropylpropan-2-aminium octanoate] + CC#N", 1.291]
]}

As a next step, examine the compound that follows.
Prompt line: I have this compound here, CCCCCCC(=O)[O-].CC[NH+](C(C)C)C(C)C [N-ethyl-N-isopropylpropan-2-aminium heptanoate] + CC#N , and I need its recorded viscosity.
Response line: 1.09

====

procedure-details: xn = mol fraction of the nth substance listed
condition-context: 298.15 K; 101.3 kPa; Liquid; Concentric cylinders viscometry; x1 = 0.2
Numbers after ± are expanded uncertainties.
Known viscosity of a selection of compounds
Form entry: enter the amount, then its unit.

The following compounds have reported results that may help.
{"columns": ["compound", "viscosity"],
 "data": [
  ["CCCCCCC(=O)[O-].CC[NH+](C(C)C)C(C)C [N-ethyl-N-isopropylpropan-2-aminium heptanoate] + O", "43.71 ± 2.6 mPa·s"],
  ["CCCCCCC(=O)[O-].CC[NH+](C(C)C)C(C)C [N-ethyl-N-isopropylpropan-2-aminium heptanoate] + CC#N", "1.826 ± 0.11 mPa·s"],
  ["CCCCCCCC(=O)[O-].CC[NH+](C(C)C)C(C)C [N-ethyl-N-isopropylpropan-2-aminium octanoate] + CC#N", "1.947 ± 0.12 mPa·s"]
]}

Now look at this entry.
Prompt line: Endpoint output: viscosity of CCCCCCCC(=O)[O-].CC[NH+](C(C)C)C(C)C [N-ethyl-N-isopropylpropan-2-aminium octanoate] + O . Value?
Response line: 52.36 ± 3.1 mPa·s
